Test system: BT-549 breast
Assay: NCI tumour cell line growth inhibition, 48 h
Where a SMILES comes first, the peptide text is derived from it. [ ]: non-standard residue; d: D form. The star is where a group is joined. ξ: configuration not given here. NMeF = CN[C@@H](Cc1ccccc1)C(=O)O; NMeN = CN[C@@H](CC(N)=O)C(=O)O; NMeV = CN[C@H](C(=O)O)C(C)C; ξNMeV = CNC(C(=O)O)C(C)C; Boc = CC(C)(C)OC(=O)*; ξNMeA = CNC(C)C(=O)O; ξV = CC(C)C(N)C(=O)O
MEASURED_METRIC: TGI (µM)

>>> recorded_measurement("c1ccc(-c2cccc(-c3ccccn3)n2)nc1")
13.6
>>> recorded_measurement("CN1CCN(Cc2ccc(NC(=O)c3cncc(C#Cc4cnc5ccc(Cl)nn45)c3)cc2C(F)(F)F)CC1")
3.85
>>> recorded_measurement("C/C(=N\\NC(=S)N1CCN(c2ccccn2)CC1)c1cccc(C)n1")
18
>>> recorded_measurement("COC(=O)C(C)N(C)C(=O)[C@H](CC(N)=O)N(C)C(=O)[C@@H]1CCCN1C(=O)[C@H](C(C)C)N(C)C(=O)C(C(C)C)N(C)C(=O)[C@H](Cc1ccccc1)N(C)C(=O)C(NC(=O)OC(C)(C)C)C(C)C (some centres undefined) (Boc-[ξV][NMeF][ξNMeV][NMeV]P[NMeN][ξNMeA]-OMe)")
32.3
>>> recorded_measurement("Oc1cc(Cn2cnc3c(Cl)nc(Cl)nc32)ccc1C12CC3CC(CC(C3)C1)C2")
34.4
>>> recorded_measurement("COc1ccc(N2C(=O)C3c4[nH]c5c(C)cccc5c4C4CCC(c5ccccc5)CC4C3C2=O)cc1 (centres undefined)")
47.8
>>> recorded_measurement("Clc1ccc(-c2nc(-c3ccccc3)cn3ccnc23)cc1")
34.3
>>> recorded_measurement("Nc1cc2ccccc2c(O)c1O")
26.1
>>> recorded_measurement("COC(=O)CCC1=C(C)C(C)=N/C1=C\\c1[nH]c(-c2ccc[nH]2)cc1OC")
13.4
>>> recorded_measurement("C1CCC(C(CC2CCCCN2)C2CCCCC2)CC1 (centres undefined)")
3.51
>>> recorded_measurement("COc1ccc2[nH]c(=O)c(/C=C/C(=O)c3ccccc3OC)cc2c1")
2.42
>>> recorded_measurement("COC(=O)[C@@H](C)C[C@H](Cc1ccccc1)NC(=O)c1nc([C@@H](C[C@H](C(C)C)N(C)C(=O)[C@@H](NC(=O)[C@H]2CCCCN2C)C(C)C)OC(C)=O)sc1C(C)C")
0.0837

---

TGI for assorted compounds
Tested on: SNB-75 CNS
Test: NCI tumour cell line growth inhibition, 48 h
MEASURED_METRIC: TGI

>>> recorded_measurement("C#CCN(Cc1ccc2nc(-c3ccccc3)c(Cl)nc2c1)c1cc(OC)c(OC)c(OC)c1")
"> 100 µM"
>>> recorded_measurement("CC1CN=C(c2cccc(-c3ccc(-c4ccccc4)o3)c2)N1 (configuration not stated)")
"2.84 µM"
>>> recorded_measurement("O=c1[nH]c2c3ccncc3cc(-c3cccc(Cl)c3)c2c2cnccc12")
"89.7 µM"
>>> recorded_measurement("N#C/C(=C/N1C(=O)/C(=C/c2ccc([N+](=O)[O-])cc2)SC1=S)c1nc2ccccc2s1")
"69.2 µM"
>>> recorded_measurement("O=C(c1cccs1)c1c(C(F)(F)F)n([O-])c2ccc(Cl)cc2[n+]1=O")
"> 50 µM"
>>> recorded_measurement("NC(=O)c1cc(Cl)ccc1NC(=O)COc1ccccc1")
"23 µM"
>>> recorded_measurement("Cc1cc(NS(=O)(=O)c2ccc(NC(=O)c3ccc(Cl)c4c(Nc5ccc(S(N)(=O)=O)cc5)c5ccccc5nc34)cc2)no1")
"42.6 µM"
>>> recorded_measurement("COc1nc2ncc([C@@H](O)[C@H](O)CO)nc2c(=O)n1C")
"> 100 µM"
>>> recorded_measurement("O=c1cc(O)ccn1C1C=C(CO)C(O)C1O (configuration not stated)")
"> 625 µM"
>>> recorded_measurement("CCN(CC)c1c(C)c(C(=O)OC)nn1-c1ccccc1")
"> 100 µM"
>>> recorded_measurement("NC(=O)c1ccc(NCC2=CC(=O)C=CC2=O)cc1")
"36.2 µM"
>>> recorded_measurement("C=Cc1ccccc1C1C(C(=O)OCC)=C(C)N=C2OC(C(=O)OC)C(=O)N21 (configuration not stated)")
"> 100 µM"
>>> recorded_measurement("NC(Cc1cnc(I)[nH]1)C(=O)O (configuration not stated)")
"> 100 µM"
>>> recorded_measurement("O=C(O)c1ccccc1NS(=O)(=O)c1ccc([N+](=O)[O-])cc1")
"> 100 µM"
>>> recorded_measurement("COC(=O)CC(=O)OC")
"> 100 µM"
>>> recorded_measurement("CN(CCCN(C)Cc1ccc(Cl)c(Cl)c1)CCN1CCCC1")
"81.7 µM"
>>> recorded_measurement("CCCCNC(=O)NNC(=O)c1cc(/C=C/c2cccc([N+](=O)[O-])c2)ncn1")
"> 100 µM"
>>> recorded_measurement("Cc1cccc(-c2cc(=O)c3cc(C)c(C)c(C(=O)O)c3o2)c1")
"> 100 µM"
>>> recorded_measurement("Cc1ccc(C2=C(c3ccccc3)C(=O)C(c3ccccc3)=C2c2ccc(C)cc2)cc1")
"> 100 µM"
>>> recorded_measurement("O=c1[nH]c2ccccc2c(O)c1/C=N/C(=S)NCCc1ccccc1")
"> 100 µM"
>>> recorded_measurement("COc1ccc(-n2cnc3c(NCC(=O)O)ncnc32)cc1")
"> 100 µM"
>>> recorded_measurement("CCOC(=O)NC(C(F)(F)F)(C(F)(F)F)P(=O)(OCC(C)C)OCC(C)C")
"97.1 µM"

---

Test system: MALME-3M melanoma
Test: NCI tumour cell line growth inhibition, 48 h
TGI for assorted compounds
MEASURED_METRIC: TGI

>>> recorded_measurement("CNc1nc(N)cc(=O)[nH]1")
"> 100 µM"
>>> recorded_measurement("O=C1C(=C2SC(c3ccccc3)(c3ccccc3)c3ccccc32)C(=O)c2ccccc21")
"> 100 µM"
>>> recorded_measurement("Cc1nn(CN2CCN(C)CC2)c(=S)n1/N=C/c1ccc(-c2ccc(Cl)cc2Cl)o1")
"> 100 µM"
>>> recorded_measurement("C=CCN=C1N=C(C)C(C(=O)OCC)S1 (stereo not given)")
"> 100 µM"
>>> recorded_measurement("CN1C(=O)C23CC4(C56CC78SSC(CO)(C(=O)N7C5Nc5ccccc56)N(C)C8=O)c5ccccc5NC4N2C(=O)C1(CO)SS3 (stereo not given)")
"0.0745 µM"

---

GI50 for assorted compounds
Test system: SR leukemia
Test: NCI tumour cell line growth inhibition, 48 h
MEASURED_METRIC: GI50

>>> recorded_measurement("Cc1oc2nc[nH]c(=O)c2c1C(=O)/C=C/c1ccc(Br)cc1")
"1.35 µM"
>>> recorded_measurement("C=C(C)[C@@H]1CC[C@]2(C)[C@H](CC[C@@H]3[C@@H]([C@@](C)(O)CCC=C(C)C)CC[C@]32C)[C@@]1(C)CCC(=O)N1CCN(C)CC1")
"3.39 µM"
>>> recorded_measurement("CCN1CCN(Cc2ccc(NC(=O)c3nc4ccc5[nH]ncc5c4c4c3CCCC4)cc2C(F)(F)F)CC1")
"1.19 µM"
>>> recorded_measurement("Cc1cc(-c2ccc(C3C(C#N)=C(N)Oc4c3c(=O)oc3ccccc43)cc2)cnc1F (stereo unspecified)")
"33.6 µM"
>>> recorded_measurement("Cc1cnc(NC2CCOCC2)nc1-n1cnc(C(=O)N[C@H](CN)c2cc(F)cc(Cl)c2)c1")
"1.14 µM"
>>> recorded_measurement("C/C(=N\\NC(=O)c1ccccc1N)c1ccccc1O")
"2.83 µM"

---

System: OVCAR-5 ovarian
Assay: NCI tumour cell line growth inhibition, 48 h
TGI for assorted molecules
MEASURED_METRIC: TGI

>>> recorded_measurement("CCCCc1ccc(N2C(=O)c3cc([N+](=O)[O-])cnc3S2(=O)=O)cc1")
"> 100 µM"
>>> recorded_measurement("Cc1ccc(-c2cc(=S)n(-c3ccccc3)c3nc(=S)n(-c4ccccc4)c(N)c23)cc1")
"> 100 µM"
>>> recorded_measurement("COc1ccc2nc3n(c2c1)C(c1c(F)cccc1Cl)SC3 (stereo not drawn)")
"> 100 µM"

---

GI50 for assorted compounds
Test system: PC-3 prostate
Assay: NCI tumour cell line growth inhibition, 48 h
MEASURED_METRIC: GI50

>>> recorded_measurement("Cc1oc2nc[nH]c(=O)c2c1C(=O)/C=C/c1ccc(Br)cc1")
"2.36 µM"
>>> recorded_measurement("COc1cccc(-n2ncc3c(N/N=C/c4cccc(F)c4)ncnc32)c1")
"9.86 µM"
>>> recorded_measurement("Cc1ccc(/C(=C/C=C(/C#N)C(N)=O)Sc2ncnn2C)cc1")
"11.4 µM"
>>> recorded_measurement("O=C(Cc1ccc(OCc2ccccc2)cc1)NCc1ccc2c(c1)OCO2")
"> 100 µM"
>>> recorded_measurement("CN(C)c1ccc(N=Nc2ccc(Br)cn2)c(O)c1")
"0.556 µM"
>>> recorded_measurement("CCN1CCN(Cc2ccc(NC(=O)c3nc4ccc5[nH]ncc5c4c4c3CCCC4)cc2C(F)(F)F)CC1")
"1.3 µM"

Origin of the recorded values: PubChem BioAssay (NCI)
